Biological target: T1, cynomolgus CX3CR1 (cynomolgus, UniProt P49238 1-355 (human entry))
T1 construct: transiently expressed on HEK293T cells; also called cyCX3CR1; cyno CX3CR1
T1 chain: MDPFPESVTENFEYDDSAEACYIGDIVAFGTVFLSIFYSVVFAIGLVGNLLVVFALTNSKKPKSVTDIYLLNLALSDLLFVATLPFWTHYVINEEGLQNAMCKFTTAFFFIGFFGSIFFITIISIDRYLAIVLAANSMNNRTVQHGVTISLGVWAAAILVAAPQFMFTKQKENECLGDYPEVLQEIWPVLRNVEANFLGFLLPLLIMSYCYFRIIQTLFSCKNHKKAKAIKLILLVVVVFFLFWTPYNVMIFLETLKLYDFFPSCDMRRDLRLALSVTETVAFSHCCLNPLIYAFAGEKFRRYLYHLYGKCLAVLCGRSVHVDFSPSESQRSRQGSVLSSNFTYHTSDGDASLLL
Test: A647-fractalkine competition FACS, cynomolgus against human CX3CR1
Procedure: Periplasmic extracts were screened in a human CX3CR1/human Fractalkine FACS competition assay to assess the blocking capacity of the expressed VHHs. Human CX3CR1 was presented on CHO cells overexpressing CX3CR1. […] After one hour incubation at 4 C, cells were washed three times before read out was performed on a FACS Array (Becton Dickinson). First a gate was set on the intact cells as determined from the scatter profile. […]
observable: ratio (cynomolgus/human IC50)

[[record]]
binder = "CX3CR1BIIPMP61F11 (VHH, not shown: C-terminal c-myc and His6 tags) VHH: KVQLVESGGGSVQAGESLRLSCAASGSIFSSNAMAWYRQPPGKQRDLVAAINSVGITKYADSVKGRFTIFRDNAKNTVYLQMNSLKPEDTAVYYCTSDPRRGWDTRYWGQGTQVTVSS"
result_number = 3.58

[[record]]
binder = "CX3CR1BIIPMP61G3 (VHH, also called 61G03; not shown: C-terminal c-myc and His6 tags) VHH: KVQLVESGGGSMQAGESLRLSCAASGSIFSSNAMAWYRQAPGKQRDLVAAINSVGITKYADSVKGRFTISRDNAKNTVYLQMMSLKPEDTAVYYCTSDPRRGWDTRYWGQGTQVTVSS"
result_number = 5.02

[[record]]
binder = "CX3CR1BIIPMP54G3 (VHH, also called 54G03; not shown: C-terminal c-myc and His6 tags) VHH: EVQLVESGGGSVQAGESLRLSCAASGSIFSSNAMAWYRQAPGKQRDLVALINSVGITKYADSVKGRFTISRDNAKNTVYLQMNSLKPEDTAVYYCTSDPRRGWDTRYWGQGTLVTVSS"
result_number = 1.74

[[record]]
binder = "CX3CR1BIIPMP54A4 (VHH, also called 54A04; not shown: C-terminal c-myc and His6 tags) VHH: EVQLVESGRGSVQAGESLRLSCAASGSIFSSNAMAWYRQAPGKQRDLVAGINSVGITKYADSVKGRFTISRDNAKNTVYLQMNSLKPEDTAVYYCTSDPRRGWDTRYWGQGTQVTVSS"
result_number = 0.64

[[record]]
binder = "CX3CR1BIIPMP54A12 (VHH, also called CX3CR1BII54A12; not shown: C-terminal c-myc and His6 tags) VHH: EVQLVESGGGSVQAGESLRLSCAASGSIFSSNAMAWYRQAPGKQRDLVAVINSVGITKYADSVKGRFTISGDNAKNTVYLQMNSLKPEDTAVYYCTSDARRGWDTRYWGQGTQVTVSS"
result_number = 9.85

[[record]]
binder = "CX3CR1BIIPMP54A7 (VHH, also called 54A07; not shown: C-terminal c-myc and His6 tags) VHH: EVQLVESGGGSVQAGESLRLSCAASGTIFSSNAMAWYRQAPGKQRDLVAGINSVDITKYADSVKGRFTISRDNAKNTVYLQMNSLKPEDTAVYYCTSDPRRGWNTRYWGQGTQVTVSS"
result_number = 12.3

[[record]]
binder = "CX3CR1BIIPMP61B2 (VHH, also called 61B02; not shown: C-terminal c-myc and His6 tags) VHH: EVQLVESRGGSVQAGASLRLSCAASGSIFSSNAMAWYRQAPGKQRDLVAVINTVGITKYADSVKGRFTISRDNAKNTVYLQMNSLKPEDTAVYYCTSDARRGWDTRYWGQGTQVTVSS"
result_number = 4.37

[[record]]
binder = "CX3CR1BIIPMP66G01 (VHH, also called CX3CR1BII66G01; not shown: C-terminal c-myc and His6 tags) VHH: EMQLVESGGGSVQAGESLRLSCAASGSIFSSNAMAWYRQAPGKQRDLVALINSVGITKYADSVKGRFTISRDNAKNTVYLQMNSLKPEDTAVYYCTSDGRRGWDTRYWGQGTQVTVSS"
result_number = 8.29

[[record]]
binder = "CX3CR1BIIPMP61G4 (VHH, also called 61G04; not shown: C-terminal c-myc and His6 tags) VHH: KVQLVESGGGSVQAGGSLRLSCAASGSIFSSNAMAWYRQAPGKQRDLVAAINSVGITKYADSVKGRFTISRDNAKNTVYLQMMSLKPEDTAVYYCTSDPRRGWDTRYWGQGTQVTVSS"
result_number = 4.8

[[record]]
binder = "CX3CR1BIIPMP54B3 (VHH, also called 54B03; not shown: C-terminal c-myc and His6 tags) VHH: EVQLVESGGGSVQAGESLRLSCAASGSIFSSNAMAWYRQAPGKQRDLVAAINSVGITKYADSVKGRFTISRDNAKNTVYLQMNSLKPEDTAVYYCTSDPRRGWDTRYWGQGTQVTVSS"
result_number = 7.05

[[record]]
binder = "CX3CR1BIIPMP54H1 (VHH, also called 54H01; not shown: C-terminal c-myc and His6 tags) VHH: EVQLVESGGGSVQAGESLRLSCAASGTIFSSNAMAWYRQAPGKQRDLVAGINSVDITKYADSVKGRFTVSRDNAKNTVYLQMNSLKPEDTAVYYCTSDPRRGWNTRYWGQGTQVTVSS"
result_number = 6.48

[[record]]
binder = "CX3CR1BIIPMP61E2 (VHH, also called 61E02; not shown: C-terminal c-myc and His6 tags) VHH: EVQLVESGGGSVQAGESLRLSCAASGSIFSSNAMAWYRQAPGKQRDLVAGINSVGITKYADSVKGRFTISRDNAKNTVYLQMNSLKPEDMAVYYCTSDPRRGWDTRYWGQGTQVTVSS"
result_number = 0.55

[[record]]
binder = "CX3CR1BIIPMP54D5 (VHH, also called 54D05; CX3CR1BII54D5; not shown: C-terminal c-myc and His6 tags) VHH: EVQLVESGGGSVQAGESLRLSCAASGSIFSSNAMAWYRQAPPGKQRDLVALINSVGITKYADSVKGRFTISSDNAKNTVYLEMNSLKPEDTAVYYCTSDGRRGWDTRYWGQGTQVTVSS"
result_number = 12.2

[[record]]
binder = "CX3CR1BIIPMP66B02 (VHH, alexa647 label where used as labeled competitor (Table 23), also called CX3CR1BII66B02; C100CX3CR1BII66B02; not shown: C-terminal c-myc and His6 tags) VHH: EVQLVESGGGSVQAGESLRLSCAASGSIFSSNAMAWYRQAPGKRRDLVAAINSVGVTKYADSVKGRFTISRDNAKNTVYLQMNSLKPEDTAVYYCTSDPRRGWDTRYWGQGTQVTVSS"
result_number = 7.5

[[record]]
binder = "CX3CR1BIIPMP54D8 (VHH, also called 54D08; CX3CR1BII54D08; not shown: C-terminal c-myc and His6 tags) VHH: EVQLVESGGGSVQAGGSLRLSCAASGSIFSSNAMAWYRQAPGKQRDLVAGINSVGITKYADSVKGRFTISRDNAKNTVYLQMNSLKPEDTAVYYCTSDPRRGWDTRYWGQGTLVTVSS"
result_number = 0.85

